- Assay Text: Cytotoxicity by survived cell number in 293 cells expressing ∆K280 TauRD‐DsRed
- Type: cell-based
- Condition Details: human, Tet-on ∆K280 TauRD-DsRed 293 cells (expression induced); 10 μM; ∆K280 TauRD‐DsRed‐expressing 293 cells
Reported Property: viability at 3 days, 10 µM (%)

{"Compound": "O=C(c1ccccc1)c1cc2c(O)cccc2oc1=O [LM‐031, 3‐benzoyl‐5‐hydroxychromen‐2‐one]", "Reported Property": "viability at 3 days, 10 µM", "Assay Value": 91}

###

- Assay Text: MTT cytotoxicity in uninduced retinoic acid‐differentiated SH‐SY5Y cells
- Type: cell-based
- Condition Details: human

{"Compound": "COc1ccc(O)c(/C=C/C(=O)c2ccccc2)c1 [LM‐006]", "IC50 at 7 days, µM": 4.7}
{"Compound": "COc1cccc(/C=C/C(=O)c2ccc(O)cc2)c1O [LM‐026]", "IC50 at 7 days, µM": 5.4}
{"Compound": "COc1ccc(C(=O)/C=C/c2cc(Br)ccc2O)cc1 [LM‐004]", "IC50 at 7 days, µM": 4.8}
{"Compound": "O=C(c1ccccc1)c1cc2c(O)cccc2oc1=O [LM‐031, 3‐benzoyl‐5‐hydroxychromen‐2‐one]", "IC50 at 7 days, µM": 6.8}
{"Compound": "Cc1ccc(/C=C/C(=O)c2c(O)c3ccccc3oc2=O)cc1 [LM‐016]", "IC50 at 7 days, µM": 6}
{"Compound": "Nc1c(/N=N/c2ccc(-c3ccc(/N=N/c4cc(S(=O)(=O)O)c5ccccc5c4N)cc3)cc2)cc(S(=O)(=O)O)c2ccccc12 [congo red, reference compound]", "IC50 at 7 days, µM": 27.4}

###

- Assay Text: PAMPA‐BBB permeability assay
Reported Property: Papp at 18 h, 1 µM (×10⁻⁶ cm/s)

{"Compound": "O=C(c1ccccc1)c1cc2c(O)cccc2oc1=O [LM‐031, 3‐benzoyl‐5‐hydroxychromen‐2‐one]", "Units Text": "×10⁻⁶ cm/s", "Assay Value": 4.8}

###

- Assay Text: MTT cytotoxicity in uninduced ∆K280 TauRD‐DsRed 293 cells
- Format: cell-based
- Condition Details: human
Catalogue of IC50 at 3 days values

{"Compound": "Nc1c(/N=N/c2ccc(-c3ccc(/N=N/c4cc(S(=O)(=O)O)c5ccccc5c4N)cc3)cc2)cc(S(=O)(=O)O)c2ccccc12 [congo red, reference compound]", "Units Text": "µM", "IC50 at 3 days": 36.4}
{"Compound": "O=C(c1ccccc1)c1cc2c(O)cccc2oc1=O [LM‐031, 3‐benzoyl‐5‐hydroxychromen‐2‐one]", "Units Text": "µM", "IC50 at 3 days": 55.9}
{"Compound": "COc1cccc(/C=C/C(=O)c2ccc(O)cc2)c1O [LM‐026]", "Units Text": "µM", "IC50 at 3 days": 7.7}
{"Compound": "Cc1ccc(/C=C/C(=O)c2c(O)c3ccccc3oc2=O)cc1 [LM‐016]", "Units Text": "µM", "IC50 at 3 days": 9.3}
{"Compound": "COc1ccc(C(=O)/C=C/c2cc(Br)ccc2O)cc1 [LM‐004]", "Units Text": "µM", "IC50 at 3 days": 6.4}
{"Compound": "COc1ccc(O)c(/C=C/C(=O)c2ccccc2)c1 [LM‐006]", "Units Text": "µM", "IC50 at 3 days": 6.4}
